These entries and their values trace back to ChEMBL document CHEMBL1201862.

IC50 by entry:
- TARGET OR TEST SYSTEM: Tumor necrosis factor (Homo sapiens, UniProt P01375)
- Sequence (P01375 whole entry): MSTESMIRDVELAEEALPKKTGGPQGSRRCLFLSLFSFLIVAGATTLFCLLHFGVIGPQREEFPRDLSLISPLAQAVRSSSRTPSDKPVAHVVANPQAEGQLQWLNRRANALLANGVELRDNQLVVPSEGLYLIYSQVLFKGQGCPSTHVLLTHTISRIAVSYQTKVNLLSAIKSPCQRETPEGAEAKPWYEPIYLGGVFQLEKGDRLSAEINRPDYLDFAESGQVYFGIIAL
- TEST PROTOCOL: analog potency on TNFa NF-kB signaling – cell-based, revised, SAR follow-up (AID 2337)
- Assay type: functional
Active and inactive are the calls of the source.

| COMPOUND | IC50 |
| --- | --- |
| CN(C)c1ccc(NC(=O)c2ccc(CN3CCCCC3)cc2)cc1 | > 20 µM (inactive) |
| CC(=O)N1c2ccc(S(=O)(=O)N3CCC(C(=O)Nc4cccc(C)n4)CC3)cc2CC1C (centres undefined) | 6.02 µM (active) |
| CC(C)(C)c1ccc(C(=O)ONC(=N)c2cccc([N+](=O)[O-])c2)cc1 | > 20 µM (inactive) |
| O=C(Nc1nc2ccccc2n1Cc1ccc(Cl)cc1)c1ccco1 | > 20 µM (inactive) |

====

IC50 by entry:
- TARGET OR TEST SYSTEM: Protein Tat (Human immunodeficiency virus type 1 group M subtype B (isolate HXB2)(HIV-1));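 further: tat binding to TAR RNA read out by fluorescence polarization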
- Sequence (P04608 whole entry): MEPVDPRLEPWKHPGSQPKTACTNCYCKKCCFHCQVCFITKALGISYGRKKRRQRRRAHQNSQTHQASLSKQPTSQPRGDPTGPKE
- Type: functional
The source made the active and inactive calls.

| STRUCTURE NOTATION | IC50 |
| --- | --- |
| CC(=O)N1CCN(c2ccc(NCc3ccccc3)cc2)CC1 | 13.7 µM (inconclusive) |
| CC(=O)N1CCN(c2ccc(NCc3ccc(C)s3)cc2)CC1 | > 100 µM (active) |
| O=C(c1ccccc1NS(=O)(=O)c1ccc([N+](=O)[O-])cc1[N+](=O)[O-])N1O[C@@H]2C=C[C@H]1C2 | > 100 µM (active) |
| CC(=O)N(\C=C/C=C/C=C1\Sc2ccccc2C1=O)c1ccccc1 | > 100 µM (active) |

====

- TARGET OR TEST SYSTEM: High affinity choline transporter 1 (Homo sapiens, UniProt Q9GZV3)
- Sequence (Q9GZV3 whole entry): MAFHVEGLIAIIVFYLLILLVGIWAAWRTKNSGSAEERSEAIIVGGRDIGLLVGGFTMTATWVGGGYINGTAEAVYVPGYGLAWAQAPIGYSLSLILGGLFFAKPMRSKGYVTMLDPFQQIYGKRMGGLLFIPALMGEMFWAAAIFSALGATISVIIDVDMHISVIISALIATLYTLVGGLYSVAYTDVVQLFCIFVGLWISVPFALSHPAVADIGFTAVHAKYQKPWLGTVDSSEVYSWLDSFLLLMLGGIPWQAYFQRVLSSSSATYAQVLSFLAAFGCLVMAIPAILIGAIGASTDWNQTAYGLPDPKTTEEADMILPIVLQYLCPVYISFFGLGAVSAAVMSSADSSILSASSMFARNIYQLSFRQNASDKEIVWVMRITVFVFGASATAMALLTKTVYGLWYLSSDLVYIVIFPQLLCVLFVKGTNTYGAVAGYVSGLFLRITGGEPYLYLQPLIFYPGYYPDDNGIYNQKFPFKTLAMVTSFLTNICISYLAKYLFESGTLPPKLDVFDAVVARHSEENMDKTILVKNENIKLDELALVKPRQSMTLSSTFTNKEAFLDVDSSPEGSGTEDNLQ
- TEST PROTOCOL: human choline transporter blockers, potency – cell-based, 5-point CRC, membrane potential dye, dose response (AID 504840)
- Assay type: functional
The source made the active and inactive calls.
METRIC NAME: IC50

| STRUCTURE NOTATION | TARGET OR TEST SYSTEM | METRIC NAME | MEASURED RESULT |
| --- | --- | --- | --- |
| CCc1cc([N+](=O)[O-])cc(CC)c1N | High affinity choline transporter 1 (Homo sapiens, UniProt Q9GZV3) | IC50 | 13.8 µM (active) |
| CCn1cc(/C=C(\NC(=O)c2ccccc2F)C(=O)N2CCOCC2)c2ccccc21 | High affinity choline transporter 1 (Homo sapiens, UniProt Q9GZV3) | IC50 | 15.6 µM (active) |
| O=[N+]([O-])c1cccc(CSc2nnc3ccccn23)c1 | High affinity choline transporter 1 (Homo sapiens, UniProt Q9GZV3) | IC50 | 16.6 µM (active) |
| COc1cc2ccccc2cc1C(=O)Nc1ccc(S(=O)(=O)Nc2cc(C)on2)cc1 | High affinity choline transporter 1 (Homo sapiens, UniProt Q9GZV3) | IC50 | 13.8 µM (active) |
| COc1cccc(CNc2ccc(N3CCC(C)CC3)cc2)c1OC | High affinity choline transporter 1 (Homo sapiens, UniProt Q9GZV3) | IC50 | 13.2 µM (active) |
| COc1cc2c(cc1OC)-c1cc(NC3CCCCCC3)nc(=O)n1CC2 | High affinity choline transporter 1 (Homo sapiens, UniProt Q9GZV3) | IC50 | 12.9 µM (active) |
| COc1ccc(-c2nc(CN3CCN(c4ncnc5ccccc45)CC3)c(C)o2)c(OC)c1 | High affinity choline transporter 1 (Homo sapiens, UniProt Q9GZV3) | IC50 | 16.8 µM (active) |
| Cc1ccc(C)[n+](CC(=O)c2ccc(-c3ccccc3)cc2)c1 | High affinity choline transporter 1 (Homo sapiens, UniProt Q9GZV3) | IC50 | 10.3 µM (active) |
| CCCCN(CCCC)S(=O)(=O)c1ccc(NC(=O)c2ccc([N+](=O)[O-])cc2Cl)cc1 | High affinity choline transporter 1 (Homo sapiens, UniProt Q9GZV3) | IC50 | 12.6 µM (active) |

====

- Test system: H4
- TEST PROTOCOL: Luminescence Cell-Based Dose Response HTS to Identify Activators of 5'UTR Stem-Loop Driven Prion Protein mRNA Translation in H4 Neuroglioblastoma Cells. [Related pubchem assays: 1829 (Project Summary), 1814 (Primary HTS)]
- Type: functional
- CONDITION LABEL: Homo sapiens
Calls of active or inactive are those of the source.

| STRUCTURE NOTATION | EC50 |
| --- | --- |
| CNc1nc(-c2ccc3c(c2)CCN3C(=O)c2cccc(F)c2)cs1 | 4.2 µM (active) |
| CC(=O)c1ccc(NC(=O)CCc2nnc3ccc(NCc4ccco4)nn23)cc1 | > 120 µM (not active) |
| Cc1ccc(NC(=O)c2ccc(S(=O)(=O)NCc3ccco3)cc2)nc1 | 49.7 µM (active) |
| Cn1c(=O)c2c(nc(SCCN3CCOCC3)n2Cc2ccc(F)cc2)n(C)c1=O | > 120 µM (not active) |
| CCSc1ncc(/C=N/Nc2ccc([N+](=O)[O-])cc2)n1C | 0.793 µM (active) |

====

- TARGET OR TEST SYSTEM: Histone-lysine N-methyltransferase NSD2 (Homo sapiens, UniProt O96028)
- Sequence (O96028 whole entry): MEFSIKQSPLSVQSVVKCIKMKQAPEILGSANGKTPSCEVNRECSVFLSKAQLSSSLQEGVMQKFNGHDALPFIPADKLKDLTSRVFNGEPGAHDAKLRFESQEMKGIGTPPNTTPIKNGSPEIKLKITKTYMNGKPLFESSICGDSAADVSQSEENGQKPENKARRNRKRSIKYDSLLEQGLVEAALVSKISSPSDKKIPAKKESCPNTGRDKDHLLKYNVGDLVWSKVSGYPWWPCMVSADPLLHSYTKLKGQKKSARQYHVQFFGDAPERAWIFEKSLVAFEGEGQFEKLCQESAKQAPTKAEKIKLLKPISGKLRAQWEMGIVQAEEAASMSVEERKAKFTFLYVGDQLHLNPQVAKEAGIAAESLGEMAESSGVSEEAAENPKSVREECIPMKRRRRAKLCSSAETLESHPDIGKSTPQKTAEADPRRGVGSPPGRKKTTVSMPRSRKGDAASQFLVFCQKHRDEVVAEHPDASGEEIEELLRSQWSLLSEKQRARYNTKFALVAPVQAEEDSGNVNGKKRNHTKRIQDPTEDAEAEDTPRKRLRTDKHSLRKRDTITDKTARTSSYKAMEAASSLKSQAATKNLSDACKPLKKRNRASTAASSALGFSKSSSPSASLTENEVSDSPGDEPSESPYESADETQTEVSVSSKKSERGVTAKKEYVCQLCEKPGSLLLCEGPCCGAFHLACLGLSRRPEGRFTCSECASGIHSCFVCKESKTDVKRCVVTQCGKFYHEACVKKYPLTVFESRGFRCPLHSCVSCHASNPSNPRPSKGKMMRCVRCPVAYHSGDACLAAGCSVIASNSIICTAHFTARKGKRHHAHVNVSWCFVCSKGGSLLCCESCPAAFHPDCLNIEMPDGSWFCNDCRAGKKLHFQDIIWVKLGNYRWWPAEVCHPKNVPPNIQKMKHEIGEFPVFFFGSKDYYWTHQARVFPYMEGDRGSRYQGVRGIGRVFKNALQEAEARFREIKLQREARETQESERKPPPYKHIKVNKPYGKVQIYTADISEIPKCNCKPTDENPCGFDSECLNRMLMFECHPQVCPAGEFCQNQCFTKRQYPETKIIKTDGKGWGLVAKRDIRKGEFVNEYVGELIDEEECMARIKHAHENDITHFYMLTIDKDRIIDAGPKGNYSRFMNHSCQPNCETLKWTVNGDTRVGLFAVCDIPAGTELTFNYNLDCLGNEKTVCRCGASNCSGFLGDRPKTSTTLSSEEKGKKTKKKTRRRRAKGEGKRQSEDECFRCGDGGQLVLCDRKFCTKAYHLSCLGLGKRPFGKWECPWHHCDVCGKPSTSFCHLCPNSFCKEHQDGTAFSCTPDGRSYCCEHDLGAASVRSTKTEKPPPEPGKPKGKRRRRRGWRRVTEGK
- Format: biochemical
Activity calls are given as the source filed them.
Classes used: t = active, f = inactive

| COMPOUND | TARGET OR TEST SYSTEM | GROUP |
| --- | --- | --- |
| CCN(CC)CCC/N=C(\C)C1=C(O)c2ccccc2C1=O | Histone-lysine N-methyltransferase NSD2 (Homo sapiens, UniProt O96028) | f |
| O=c1c(O)cccc2cc(O)c(O)c(O)c12 [PURPUROGALLIN] | Histone-lysine N-methyltransferase NSD2 (Homo sapiens, UniProt O96028) | t |
| Cc1ccccc1NC1=NC(=O)/C(=C/c2cccn2-c2cccc(C(=O)O)c2)S1 | Histone-lysine N-methyltransferase NSD2 (Homo sapiens, UniProt O96028) | f |
| C/C(CC(=O)Nc1ccc2ccccc2c1)=N\NC(=O)c1ccc(O)c(O)c1 | Histone-lysine N-methyltransferase NSD2 (Homo sapiens, UniProt O96028) | t |
| CNCCOc1ccccc1-c1ccccc1 | Histone-lysine N-methyltransferase NSD2 (Homo sapiens, UniProt O96028) | f |
| C(=N/Nc1cc(N2CCOCC2)nc(N2CCOCC2)n1)/c1ccccc1 | Histone-lysine N-methyltransferase NSD2 (Homo sapiens, UniProt O96028) | f |

====

- TARGET OR TEST SYSTEM: Kappa-type opioid receptor (Homo sapiens)
- Sequence (P41145 whole entry): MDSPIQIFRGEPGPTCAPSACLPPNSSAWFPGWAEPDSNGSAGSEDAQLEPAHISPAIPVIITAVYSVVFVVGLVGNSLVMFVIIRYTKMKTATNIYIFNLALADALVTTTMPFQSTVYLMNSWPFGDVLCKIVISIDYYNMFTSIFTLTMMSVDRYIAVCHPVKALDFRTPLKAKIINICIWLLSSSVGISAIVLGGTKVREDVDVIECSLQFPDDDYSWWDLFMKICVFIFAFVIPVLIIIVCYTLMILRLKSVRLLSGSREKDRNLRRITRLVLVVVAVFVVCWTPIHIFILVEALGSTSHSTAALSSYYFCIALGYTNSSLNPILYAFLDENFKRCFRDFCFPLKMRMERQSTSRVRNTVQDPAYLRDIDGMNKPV
- Assay type: functional
pIC50: −log10 of the molar value.
pIC50 by entry:
METRIC NAME: pIC50

| STRUCTURE NOTATION | MEASURED RESULT |
| --- | --- |
| CCc1ccc(NC(=O)c2nc(S(=O)(=O)Cc3ccccc3)ncc2Cl)cc1 | 5.14 |
| COc1cc(/C=C/c2sc3ccccc3[n+]2CCCS(=O)(=O)[O-])ccc1O | < 4.49 |
| COc1cccc(N=Nc2ccc3cccnc3c2O)c1 | < 4.49 |

====

- TARGET OR TEST SYSTEM: Induced myeloid leukemia cell differentiation protein Mcl-1 (Homo sapiens)
- Sequence (Q07820 whole entry): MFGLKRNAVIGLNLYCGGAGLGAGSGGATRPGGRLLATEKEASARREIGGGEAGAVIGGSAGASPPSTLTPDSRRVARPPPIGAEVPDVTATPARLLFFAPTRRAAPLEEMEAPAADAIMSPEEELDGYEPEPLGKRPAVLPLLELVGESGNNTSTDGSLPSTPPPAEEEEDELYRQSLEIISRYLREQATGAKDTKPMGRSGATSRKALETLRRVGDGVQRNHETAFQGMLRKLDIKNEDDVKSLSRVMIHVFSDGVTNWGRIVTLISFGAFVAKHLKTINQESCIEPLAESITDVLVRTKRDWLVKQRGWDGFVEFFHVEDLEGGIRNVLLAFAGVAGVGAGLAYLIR
- Type: functional
Calls of active or inactive are those of the source.
IC50 by entry:

| COMPOUND | TARGET OR TEST SYSTEM | IC50 |
| --- | --- | --- |
| CC(C)(C)c1ccc(CN2N=Nc3ccccc3S2(=O)=O)cc1 | Induced myeloid leukemia cell differentiation protein Mcl-1 (Homo sapiens) | 24.1 µM (active) |
| O=c1c(O)cccc2cc(O)c(O)c(O)c12 | Induced myeloid leukemia cell differentiation protein Mcl-1 (Homo sapiens) | > 54 µM (active) |
| O=C(NC1CC1)c1cc(-c2ccco2)nc2ccccc12 | Induced myeloid leukemia cell differentiation protein Mcl-1 (Homo sapiens) | 1.71 µM (active) |
| COC/C=C/C1=CC2=CC(=O)C(C)(OC(=O)c3ccco3)C(=O)C2=CO1 (stereo not given) | Induced myeloid leukemia cell differentiation protein Mcl-1 (Homo sapiens) | 3.7 µM (active) |
| Cc1ccc(-n2cccc2/C=C2\C(=N)N3N=C(c4ccco4)SC3=NC2=O)cc1 | Induced myeloid leukemia cell differentiation protein Mcl-1 (Homo sapiens) | 1.7 µM (active) |

====

- TARGET OR TEST SYSTEM: Beta Lactamase (Pseudomonas aeruginosa, UniProt Q932Y6)
- Sequence (Q932Y6 whole entry): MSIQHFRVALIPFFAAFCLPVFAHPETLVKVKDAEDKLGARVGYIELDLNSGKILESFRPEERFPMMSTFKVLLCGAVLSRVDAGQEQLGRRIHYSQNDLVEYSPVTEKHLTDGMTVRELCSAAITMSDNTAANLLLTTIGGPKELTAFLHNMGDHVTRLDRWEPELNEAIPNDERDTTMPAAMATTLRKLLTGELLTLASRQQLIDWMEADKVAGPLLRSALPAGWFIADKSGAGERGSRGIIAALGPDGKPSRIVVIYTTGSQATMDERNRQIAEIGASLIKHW
- TEST PROTOCOL: BLA reporter interference, concentration series – BLA reporter cells, FRET fluorescence, artefact control for TLR9-MyD88 binding inhibitor project, dose response (AID 588341);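 further: cell based assay in CHO-K1 cells stably expressing beta-lactamase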
- Format: cell-based
The source made the active and inactive calls.
Classes used: active, inactive

| STRUCTURE NOTATION | TARGET OR TEST SYSTEM | GROUP |
| --- | --- | --- |
| CCc1ccc(NC(=O)c2nc(S(=O)(=O)Cc3ccccc3)ncc2Cl)cc1 | Beta Lactamase (Pseudomonas aeruginosa, UniProt Q932Y6) | inactive |
| CS(=O)(=O)c1ncc(Cl)c(C(=O)Nc2ccc(N3CCOCC3)cc2)n1 | Beta Lactamase (Pseudomonas aeruginosa, UniProt Q932Y6) | inactive |
| C/C(=N\Nc1ccc([N+](=O)[O-])cc1)c1cc2ccccc2o1 | Beta Lactamase (Pseudomonas aeruginosa, UniProt Q932Y6) | active |
| COc1ccc(Cn2cc3c(-c4ccc(F)cc4)nnc-3c3cc(OC)c(OC)cc32)cc1 | Beta Lactamase (Pseudomonas aeruginosa, UniProt Q932Y6) | active |
